Listing of entries alongside the reported Chemokine induction MCP-1.
System: MCP-1 release by human PBMC
PROCEDURE SUMMARY: Chemokine induction in PBMC (capture ELISA)
Type: cell-based
MEASUREMENT CONTEXT: 20 μg/ml peptide, background (204) subtracted
No end group written: not given here.
Output spec: scalar in pg/mL, unitless text.

Consider the reported Chemokine induction MCP-1 for these substances:
• 1047 (IIRRWWV) [compound 1047] = 8
• WIVIWRR (WIVIWRR-NH2) [compound 1043] = 98
• 1042 (IVWIWRR) [compound 1042] = -7
• WRWRVRVWR (WRWRVRVWR-NH2) [compound 1031] = 875

Quick one: Chemokine induction MCP-1 of LVRAIQVRAVIR (LVRAIQVRAVIR-NH2) [compound 1001] ?
516

Quick one: Chemokine induction MCP-1 of 1022 (LRIRVIVWR) [compound 1022] ?
52

Quick one: Chemokine induction MCP-1 of VIWIRWR (VIWIRWR-NH2) [compound 1041] ?
146

Quick one: Chemokine induction MCP-1 of 1024 (RIRVIVLKK) [compound 1024] ?
285

Quick one: Chemokine induction MCP-1 of 1017 (KRIVRRLVARIV) [compound 1017] ?
585

Quick one: Chemokine induction MCP-1 of VQLRIWVRR (VQLRIWVRR-NH2) [compound 1006] ?
392

Quick one: Chemokine induction MCP-1 of 1045 (RWWRIVI) [compound 1045] ?
-2

###

Listing of entries alongside the reported MIC.
Tested on: Enterococcus faecalis ATCC29212
Format: cell-based
MEASUREMENT CONTEXT: ATCC29212
Residues, ends and D or L forms follow the SMILES beside them.
Output spec: scalar in µM, unitless text.

• CC[C@H](C)[C@H](NC(=O)[C@H](CCCCN)NC(=O)[C@H](CC(C)C)NC(=O)[C@@H](NC(=O)[C@@H](N)C(C)C)C(C)C)C(=O)N[C@H](C(=O)N[C@@H](CCCNC(=N)N)C(=O)N[C@@H](CCCNC(=N)N)C(=O)N[C@@H](Cc1ccccc1)C(N)=O)C(C)C [HHC148, VVLKIVRRF] (H-VVLKIVRRF-NH2; N-terminus assumed) = 241
• CC[C@H](C)[C@H](NC(=O)[C@H](Cc1c[nH]c2ccccc12)NC(=O)[C@@H](NC(=O)[C@H](Cc1c[nH]c2ccccc12)NC(=O)[C@H](CCCNC(=N)N)NC(=O)[C@H](CCCCN)NC(=O)[C@@H](N)CCCCN)C(C)C)C(=O)N[C@@H](CCCNC(=N)N)C(=O)N[C@@H](Cc1ccc(O)cc1)C(N)=O [HHC69, KKRWVWIRY] (H-KKRWVWIRY-NH2; N-terminus assumed) = 25

Quick one: MIC of CC[C@H](C)[C@H](NC(=O)[C@H](Cc1c[nH]c2ccccc12)NC(=O)[C@H](CCCCN)NC(=O)[C@@H](N)CCCNC(=N)N)C(=O)N[C@@H](Cc1c[nH]c2ccccc12)C(=O)N[C@@H](CCCNC(=N)N)C(=O)N[C@@H](Cc1c[nH]c2ccccc12)C(=O)N[C@@H](Cc1ccccc1)C(=O)N[C@@H](CC(C)C)C(N)=O [HHC75, RKWIWRWFL] (H-RKWIWRWFL-NH2; N-terminus assumed) ?
6

Quick one: MIC of N=C(N)NCCC[C@H](NC(=O)[C@H](Cc1c[nH]c2ccccc12)NC(=O)[C@H](CCCCN)NC(=O)[C@H](CCCCN)NC(=O)[C@H](Cc1c[nH]c2ccccc12)NC(=O)[C@H](Cc1c[nH]c2ccccc12)NC(=O)[C@H](CCCNC(=N)N)NC(=O)[C@H](CCCCN)NC(=O)[C@@H](N)Cc1c[nH]c2ccccc12)C(N)=O [HHC45, WKRWWKKWR] (H-WKRWWKKWR-NH2; N-terminus assumed) ?
93

###

Test system: MCP-3 release by human PBMC
PROCEDURE SUMMARY: Chemokine induction in PBMC (capture ELISA)
Assay type: cell-based
MEASUREMENT CONTEXT: 20 μg/ml peptide, background (6) subtracted
Description: FIG. 16. Induction of MCP3 release by 7.5×10^5 human PBMC in response to treatment with 20 or 100 μg/ml of different peptides for 24 hours. Venous blood (20 ml) from healthy volunteers was collected in Vacutainer® collection tubes containing sodium heparin as an anticoagulant (Becton Dickinson, Mississauga, ON) in accordance with UBC ethical approval and guidelines. […]
Residues, ends and D or L forms follow the SMILES beside them.
Listing of entries alongside the reported Chemokine induction MCP-3.
Output spec: scalar in pg/mL, unitless text.

Consider the reported Chemokine induction MCP-3 for these molecules:
* CC(C)C[C@H](NC(=O)[C@H](Cc1c[nH]c2ccccc12)NC(=O)[C@H](Cc1c[nH]c2ccccc12)NC(=O)[C@H](CCCCN)NC(=O)[C@H](Cc1c[nH]c2ccccc12)NC(=O)[C@H](CCCNC(=N)N)NC(=O)[C@H](CCCNC(=N)N)NC(=O)[C@H](Cc1c[nH]c2ccccc12)NC(=O)[C@@H](N)CCCNC(=N)N)C(N)=O [HHC9, RWRRWKWWL] (H-RWRRWKWWL-NH2; N-terminus assumed) | -1
* CC[C@H](C)[C@H](NC(=O)[C@H](Cc1c[nH]c2ccccc12)NC(=O)[C@H](Cc1c[nH]c2ccccc12)NC(=O)[C@H](CCCCN)NC(=O)[C@H](CC(C)C)NC(=O)[C@H](CCCNC(=N)N)NC(=O)[C@H](CCCCN)NC(=O)[C@@H](N)CCCNC(=N)N)C(=O)N[C@@H](Cc1ccc(O)cc1)C(N)=O [HHC66, RKRLKWWIY] (H-RKRLKWWIY-NH2; N-terminus assumed) | 0
* CC[C@H](C)[C@H](NC(=O)[C@H](Cc1c[nH]c2ccccc12)NC(=O)[C@@H](NC(=O)[C@H](Cc1c[nH]c2ccccc12)NC(=O)[C@H](CCCNC(=N)N)NC(=O)[C@H](CCCCN)NC(=O)[C@@H](N)CCCCN)C(C)C)C(=O)N[C@@H](CCCNC(=N)N)C(=O)N[C@@H](Cc1ccc(O)cc1)C(N)=O [HHC69, KKRWVWIRY] (H-KKRWVWIRY-NH2; N-terminus assumed) | 1
* CC[C@H](C)[C@H](N)C(=O)N[C@@H](Cc1c[nH]c2ccccc12)C(=O)N[C@@H](Cc1c[nH]c2ccccc12)C(=O)N[C@@H](CCCCN)C(=O)N[C@@H](Cc1c[nH]c2ccccc12)C(=O)N[C@@H](CCCNC(=N)N)C(=O)N[C@@H](CCCNC(=N)N)C(=O)N[C@@H](Cc1c[nH]c2ccccc12)C(=O)N[C@H](C(N)=O)C(C)C [HHC77, IWWKWRRWV] (H-IWWKWRRWV-NH2; N-terminus assumed) | 0
* CC[C@H](C)[C@H](NC(=O)[C@H](CCCCN)NC(=O)[C@H](Cc1c[nH]c2ccccc12)NC(=O)[C@@H](N)CCCCN)C(=O)N[C@@H](Cc1ccccc1)C(=O)N[C@@H](CCCNC(=N)N)C(=O)N[C@@H](CCCNC(=N)N)C(=O)N[C@@H](Cc1c[nH]c2ccccc12)C(=O)N[C@@H](Cc1c[nH]c2ccccc12)C(N)=O [HHC71, KWKIFRRWW] (H-KWKIFRRWW-NH2; N-terminus assumed) | 0

Here is another molecule to look at.
Quick one: Chemokine induction MCP-3 of CC[C@H](C)[C@H](NC(=O)[C@H](CCCCN)NC(=O)[C@H](Cc1c[nH]c2ccccc12)NC(=O)[C@H](Cc1c[nH]c2ccccc12)NC(=O)[C@H](CCCNC(=N)N)NC(=O)[C@@H](N)Cc1c[nH]c2ccccc12)C(=O)N[C@@H](Cc1c[nH]c2ccccc12)C(=O)N[C@@H](CCCCN)C(=O)N[C@@H](CCCNC(=N)N)C(N)=O [HHC20, WRWWKIWKR] (H-WRWWKIWKR-NH2; N-terminus assumed) ?
8

###

System: wild-type Salmonella enterica ssp. typhimurium
Assay type: cell-based
Residues, ends and D or L forms follow the SMILES beside them.
OBSERVATION TYPE: MIC S. typhi
Your reply should be a number followed by the unit it is expressed in.

* CC[C@H](C)[C@H](NC(=O)[C@H](CCCNC(=N)N)NC(=O)[C@H](Cc1ccccc1)NC(=O)[C@H](CCCNC(=N)N)NC(=O)[C@@H](N)CCCCN)C(=O)N[C@@H](CCCNC(=N)N)C(=O)N[C@H](C(=O)N[C@@H](CCCNC(=N)N)C(=O)N[C@H](C(=O)N[C@H](C(=O)N[C@@H](CCCNC(=N)N)C(=O)N[C@@H](CCCCN)C(N)=O)[C@@H](C)CC)C(C)C)C(C)C [HH15, KRFRIRVRVIRK] (H-KRFRIRVRVIRK-NH2) | 3 µg/mL

Value wanted: MIC S. typhi (wild-type Salmonella enterica ssp. typhimurium) of entry CC[C@H](C)[C@H](N)C(=O)N[C@@H](CC(C)C)C(=O)N1CCC[C@H]1C(=O)N[C@@H](Cc1c[nH]c2ccccc12)C(=O)N[C@@H](CCCCN)C(=O)N[C@@H](Cc1ccccc1)C(=O)N1CCC[C@H]1C(=O)N[C@@H](Cc1c[nH]c2ccccc12)C(=O)N[C@@H](Cc1c[nH]c2ccccc12)C(=O)N1CCC[C@H]1C(=O)N[C@@H](Cc1c[nH]c2ccccc12)C(=O)N[C@@H](CCCNC(=N)N)C(=O)N[C@@H](CCCNC(=N)N)C(N)=O [HH63, ILPWKFPWWPWRR] (H-ILPWKFPWWPWRR-NH2; N-terminus assumed)
31 µg/mL
